Sourced from paper PMC6982022

experiment: Pharmacokinetic study, single oral bolus, plasma LC/MS/MS; type: in vivo, rat; settings: rat; male CD rats, single oral 150 mg/kg, n = 4, plasma, non-compartmental; read-out: AUCINF_Obs

smiles input: CCCCN1C[C@H](O)[C@@H](O)[C@@H](O)[C@H]1CO
AUC(0-inf) [ng·h/mL]: 55600
